These entries and their values trace back to ChEMBL document CHEMBL1127457.

# EXPERIMENT: Average area under curve for compound at 1 mg/kg dose intravenous administration to Ferret
# CONDITIONS: in vivo
OBSERVABLE: AUC (ng·h/mL)

>>> reported_value("CCCC[C@H](N[C@@H](Cc1ccccc1)C(=O)N1CCC(OCOC)CC1)C(=O)N[C@@H](CC1CCCCC1)[C@@H](O)C[C@H](C(=O)NCCC[N+]1([O-])CCOCC1)C(C)C")
668
>>> reported_value("CCCC[C@H](N[C@@H](Cc1ccccc1)C(=O)N1CCC(OCOC)CC1)C(=O)N[C@@H](CC1CCCCC1)[C@@H](O)C[C@H](C(=O)NCCCN1CCOCC1)C(C)C")
902
>>> reported_value("CCCC[C@H](N[C@@H](Cc1ccccc1)C(=O)N1CCC(OCOC)CC1)C(=O)N[C@@H](CC1CCCCC1)[C@@H](O)C[C@H](C(=O)NCCNc1noc(N)n1)C(C)C")
71.3
>>> reported_value("CCCC[C@H](N[C@@H](Cc1ccccc1)C(=O)N1CCC(OCOC)CC1)C(=O)N[C@@H](CC1CCCCC1)[C@@H](O)C[C@H](C(=O)NCc1ccccn1)C(C)C")
3030
>>> reported_value("CCCC[C@H](N[C@@H](Cc1ccccc1)C(=O)N1CCC(OCOC)CC1)C(=O)N[C@@H](CC1CCCCC1)[C@@H](O)C[C@H](C(=O)NCCN1CCOCC1)C(C)C")
1870
>>> reported_value("CCCC[C@H](N[C@@H](Cc1ccccc1)C(=O)N1CCC(OCOC)CC1)C(=O)N[C@@H](CC1CCCCC1)[C@@H](O)C[C@H](C(=O)NCCN1CCCC1)C(C)C")
2750
>>> reported_value("CCCC[C@H](N[C@@H](Cc1ccccc1)C(=O)N1CCC(OCOC)CC1)C(=O)N[C@@H](CC1CCCCC1)[C@@H](O)C[C@H](C(=O)NCC(C)(C)N1CCOCC1)C(C)C")
2630
>>> reported_value("CCCC[C@H](N[C@@H](Cc1ccccc1)C(=O)N1CCC(OCOC)CC1)C(=O)N[C@@H](CC1CCCCC1)[C@@H](O)C[C@H](C(=O)NCc1cccnc1)C(C)C")
827
>>> reported_value("CCCC[C@H](N[C@@H](Cc1ccccc1)C(=O)N1CCC(OCOC)CC1)C(=O)N[C@@H](CC1CCCCC1)[C@@H](O)C[C@H](C(=O)NCCN1CCCCC1)C(C)C")
1680
